molecular target: T1, mouse programmed cell death protein 1 Fc fusion protein (mPD-1-Fc), mPD-1 C60S (aa 25-167) (Mus musculus, UniProt Q02242, stabilised); test: SPR; Carterra LSA; Fab from the ammonium sulfate precipitate of the culture supernatant immobilised on a NiHC200M chip; hPD-1 (1-1024 nM) or mPD-1-Fc (4-1024 nM) as analyte, fourfold dilution series, no regeneration; HBS-EP pH 7.4, 25 °C; medians over the spots of a construct, KD = koff/kon; conditions: one partner purified
T1 construct: not cleaved; source: Expi293F, purified (Protein A, SEC; dimeric fraction); not shown: Fc (human), C-terminal, kept
ENDPOINT_NAME: kon (M⁻¹ s⁻¹)
Give bare numbers, in M⁻¹ s⁻¹.

Consider the reported kon for these binders:
1) toripalimab Fab L.H98A (Fab, V domains shown, as the heavy chain of Sm3; light chain of Sm3 with this change; numbers count from the chain's first residue; source: Brevibacillus, culture supernatant (ammonium sulfate precipitate); not shown: 6xHis, C-terminal, kept; 6xHN, C-terminal, kept) VH: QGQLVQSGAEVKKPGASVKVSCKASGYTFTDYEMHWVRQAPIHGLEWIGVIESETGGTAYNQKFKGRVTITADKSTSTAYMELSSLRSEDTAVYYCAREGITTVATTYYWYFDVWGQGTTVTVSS VL: DVVMTQSPLSLPVTLGQPASISCRSSQSIVHSNGNTYLEWYLQKPGQSPQLLIYKVSNRFSGVPDRFSGSGSGTDFTLKISRVEAEDVGVYYCFQGSAVPLTFGQGTKLEIK ... 43600
2) toripalimab Fab L.P100G (Fab, V domains shown, as the heavy chain of Sm3; light chain of Sm3 with this change; numbers count from the chain's first residue; source: Brevibacillus, culture supernatant (ammonium sulfate precipitate); not shown: 6xHis, C-terminal, kept; 6xHN, C-terminal, kept) VH: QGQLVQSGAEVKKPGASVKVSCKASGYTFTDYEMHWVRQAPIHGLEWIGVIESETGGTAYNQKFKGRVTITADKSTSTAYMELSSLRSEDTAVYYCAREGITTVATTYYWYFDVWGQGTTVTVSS VL: DVVMTQSPLSLPVTLGQPASISCRSSQSIVHSNGNTYLEWYLQKPGQSPQLLIYKVSNRFSGVPDRFSGSGSGTDFTLKISRVEAEDVGVYYCFQGSHVGLTFGQGTKLEIK ... 16800

Let us examine a further case.
Would you kindly share the measured kon for toripalimab Fab L.P100A (Fab, V domains shown, as the heavy chain of Sm3; light chain of Sm3 with this change; numbers count from the chain's first residue; source: Brevibacillus, culture supernatant (ammonium sulfate precipitate); not shown: 6xHis, C-terminal, kept; 6xHN, C-terminal, kept) VH: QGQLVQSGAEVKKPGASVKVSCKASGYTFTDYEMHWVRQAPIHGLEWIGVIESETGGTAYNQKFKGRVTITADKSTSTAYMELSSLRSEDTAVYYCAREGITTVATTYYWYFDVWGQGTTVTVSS VL: DVVMTQSPLSLPVTLGQPASISCRSSQSIVHSNGNTYLEWYLQKPGQSPQLLIYKVSNRFSGVPDRFSGSGSGTDFTLKISRVEAEDVGVYYCFQGSHVALTFGQGTKLEIK ?
38900
